system: TNFα production in THP-1 cells; assay: LPS induced TNFα production assay in THP-1 cells; assay type: cell-based; conditions: Homo sapiens, 300 ng/mL LPS, measured at 5 hours
pIC50: −log10 of the molar value.
measured.parameter: pIC50

Below, each entry is followed by its recorded pIC50 result.
Request: State, in one line, measured pIC50 of N#Cc1ccc2nc(Nc3cnn(C4CCOCC4)c3)nc(N[C@H]3CC[C@H](N4CCOCC4)CC3)c2c1 [Compound I-16]
Response: ≥ 6.30

Request: // Input: CS(=O)(=O)CCCn1cc(Nc2nc(N[C@H]3CC[C@H](N4CCOCC4)CC3)c3cc(C#N)ccc3n2)cn1 [Compound I-25] . Output its pIC50 only.
Response: 5.30 to 6.30

Request: Indicate its recorded pIC50; the molecule in question is Cc1cc(Nc2nc(N[C@H]3CC[C@H](N4CCOCC4)CC3)c3cc(Br)ccc3n2)sn1 [Compound I-56]
Response: ≥ 6.30

***
Request: Determine its reported pIC50: N#Cc1ccc2nc(Nc3cnn(C4CCC(O)CC4)c3)nc(N[C@H]3CC[C@H](N4CCOCC4)CC3)c2c1 (stereo partly shown) [Compound I-28]
Response: ≥ 6.30

###

# maps each entry to its pIC50
Target: IRAK4 (Homo sapiens, UniProt Q9NWZ3)
Sequence (Q9NWZ3 1-460): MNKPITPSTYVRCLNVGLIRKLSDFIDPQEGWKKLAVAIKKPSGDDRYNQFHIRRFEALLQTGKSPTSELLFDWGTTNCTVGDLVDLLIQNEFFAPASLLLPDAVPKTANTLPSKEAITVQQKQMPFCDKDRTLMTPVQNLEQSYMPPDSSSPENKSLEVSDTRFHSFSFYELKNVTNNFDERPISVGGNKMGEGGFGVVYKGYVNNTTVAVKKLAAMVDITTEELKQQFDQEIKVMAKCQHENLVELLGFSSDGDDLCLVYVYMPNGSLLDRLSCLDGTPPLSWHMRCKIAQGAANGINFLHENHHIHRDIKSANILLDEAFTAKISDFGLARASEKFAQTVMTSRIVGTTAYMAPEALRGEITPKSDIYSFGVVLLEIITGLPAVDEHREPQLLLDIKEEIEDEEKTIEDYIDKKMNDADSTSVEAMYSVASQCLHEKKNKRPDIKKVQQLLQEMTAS
pIC50: −log10 of the molar value.

# example entries with known answers
Request: Annotate the compound Cn1cc(-c2ccc3ncnc(N[C@H]4CC[C@H](N5CCOCC5)CC4)c3c2)cn1 with its measured pIC50.
Response: ≥ 5.30

Request: Given N#Cc1ccc2ncnc(O[C@H]3CC[C@H](N4CCOCC4)CC3)c2c1 , respond with its pIC50.
Response: ≥ 5.30

Request: Answer with the recorded pIC50 of COCc1ccc2ncnc(N[C@H]3CC[C@H](N4CCOCC4)CC3)c2c1 only.
Response: ≥ 5.30

More entries:
Request: # return recorded pIC50 for entry Cc1cc(Nc2nc(N[C@H]3CC[C@H](N4CCOCC4)CC3)c3cc(C#N)ccc3n2)sn1
Response: ≥ 5.30

Request: Find the measured pIC50 of N#Cc1ccc2ncnc(N[C@H]3CC[C@H](N4CCC5(CC4)COC5)CC3)c2c1 and report it.
Response: ≥ 5.30

Request: Tell me pIC50 reported for CC(C)(O)/C=C/c1ccc2ncnc(N[C@H]3CC[C@H](N4CCOCC4)CC3)c2c1
Response: ≥ 5.30

Request: Given N#Cc1ccc2nc(Nc3cnn(C4CCC(O)CC4)c3)nc(N[C@H]3CC[C@H](N4CCOCC4)CC3)c2c1 (some centres unmarked) , respond with its pIC50.
Response: ≥ 5.30

Request: Annotate the compound Cc1cc(Nc2nc(N[C@H]3CC[C@H](N4CCOCC4)CC3)c3cc(Br)ccc3n2)sn1 with its measured pIC50.
Response: ≥ 5.30

Request: Tell me measured pIC50 for N#Cc1ccc2nc(Nc3cnn(CCOCCO)c3)nc(N[C@H]3CC[C@H](N4CCOCC4)CC3)c2c1 please.
Response: ≥ 5.30

Request: Report pIC50, nothing else, for this compound: Cn1cc(Nc2nc(N[C@H]3CC[C@H](N4CCOCC4)CC3)c3cc(C#N)ccc3n2)cn1
Response: ≥ 5.30

Request: # return recorded pIC50 for entry CCc1ccc2ncnc(N[C@H]3CC[C@H](N4CCC(C)(C)CC4)CC3)c2c1
Response: ≥ 5.30

All values here come from patent US20150329498A1.
